# tested-system: T1, human IL-1RAcP on 293T/17-FR cells (human, UniProt Q9NPH3 21-570)
# T1 sequence (looked up): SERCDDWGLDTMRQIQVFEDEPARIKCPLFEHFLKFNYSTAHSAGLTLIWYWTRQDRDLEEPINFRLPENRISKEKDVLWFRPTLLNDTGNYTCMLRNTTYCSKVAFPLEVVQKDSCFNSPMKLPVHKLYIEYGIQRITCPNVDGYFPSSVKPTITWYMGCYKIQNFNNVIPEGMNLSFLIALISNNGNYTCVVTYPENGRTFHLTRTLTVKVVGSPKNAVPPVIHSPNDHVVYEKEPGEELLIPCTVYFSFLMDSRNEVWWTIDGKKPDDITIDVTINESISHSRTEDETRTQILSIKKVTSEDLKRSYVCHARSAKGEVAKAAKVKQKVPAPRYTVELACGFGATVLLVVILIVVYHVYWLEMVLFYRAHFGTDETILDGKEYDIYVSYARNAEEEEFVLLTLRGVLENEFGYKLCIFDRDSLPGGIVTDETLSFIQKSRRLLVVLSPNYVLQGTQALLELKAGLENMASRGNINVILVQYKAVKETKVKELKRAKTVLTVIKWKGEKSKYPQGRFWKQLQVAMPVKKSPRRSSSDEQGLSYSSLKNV
# method-notes: cell-based or functional assay
quantity-measured: functional reporter gene assay (% inhibition), 1 µg/mL mAb

| binder | result |
| --- | --- |
| P013.S.01.B.G04 (antibody, V domains shown, rabbit monoclonal antibody; also called P013.A.00013.G06) VH: QSVEESGGRLVTPGTPLTLTCTVSGFSLSVYAMGWFRQAPGKGLEWIGDIYIASDGTWYANWAKGRFTISKTSTTVDLKITSPTTEDTATYFCAREIDAGYVGYGFNLWGQGTLVTVSS VL: AQALTQTPSPVSAAVGGTVTINCQSSQSVYSDYLGWYQQKPGQPPKLLIYWASKLETGVPSRFKGSGSGTQFTLTISGVQSDDAATYYCQATYYGSGWYRAFGGGTEVVVK | 84% |
| P013.S.01.B.F05 (antibody, V domains shown, rabbit monoclonal antibody; also called P013.A.00087.C06) VH: QSLEESGGRLVTPGGSLTLTCTVSGIDLSNYAMSWVRQAPGKGLEWIGSVISGGSTYYATWAKGRFTISKTSTTVDLKMTSLTTEDTATYFCARGCPGYNGDKYALDLWGPGTVVTVSS VL: AFEMTQTPSSVSEPVGGTVTIKCQASQSIHNYLSWYQQKPGQRPKLLIYRASTLASGVPSRFKGSGSGTEFTLTISGVESADAATYYCQQGATSYDIDNAFGGGTEVVVK | 70% |

Ref: patent US20190106487A1
